Listed molecules paired with reported EC50
# Tested on: human GPR119 receptor (Homo sapiens, UniProt Q8TDV5, S329A/T327A)
# Construct: N-terminal leader […]; expressed in transfected cells
# Sequence (Q8TDV5 with tags, fused parts or gaps T327A/S329A): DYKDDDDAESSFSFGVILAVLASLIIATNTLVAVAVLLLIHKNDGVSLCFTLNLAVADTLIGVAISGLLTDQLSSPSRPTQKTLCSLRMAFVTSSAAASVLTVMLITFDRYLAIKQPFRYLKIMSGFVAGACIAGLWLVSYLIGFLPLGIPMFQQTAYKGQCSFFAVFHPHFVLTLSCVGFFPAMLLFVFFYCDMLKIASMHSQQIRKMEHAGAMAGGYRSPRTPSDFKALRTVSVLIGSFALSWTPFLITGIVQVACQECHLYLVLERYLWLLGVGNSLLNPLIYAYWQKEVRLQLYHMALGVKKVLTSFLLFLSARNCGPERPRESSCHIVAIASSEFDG
# Measurement notes: cAMP assay (LANCE cAMP-384) in HEK293 cells stably expressing mutant human GPR119 receptor
# Assay type: cell-based
# Stated conditions: the 19th table; unit inferred; read-out: EC 50
Quantity measured: EC50 (µM)

1) CCc1cnc(N2CCC(ON=C3CCN(c4cc(F)c(C(=O)N5CCCC(CNC)C5)cc4F)CC3)CC2)nc1 (stereo not shown) [Example 29-129]    0.05
2) CCc1cnc(N2CCC(ON=C3CCN(c4cc(F)c(C(=O)NC5CCCNC5)cc4F)CC3)CC2)nc1 (stereo not shown) [Example 29-127]    0.322
3) CCc1cnc(N2CCC(ON=C3CCN(c4cc(F)c(C(=O)NCCC5CCNCC5)cc4F)CC3)CC2)nc1 [Example 29-112]    0.038
4) CCc1cnc(N2CCC(ON=C3CCN(c4cc(F)c(C(=O)N5CCC[C@H]5CNC)cc4F)CC3)CC2)nc1 [Example 29-134]    0.437
5) CCc1cnc(N2CCC(ON=C3CCN(c4cc(F)c(C(=O)NC5CNC5)cc4F)CC3)CC2)nc1 [Example 29-116]    0.322
6) CCc1cnc(N2CCC(ON=C3CCN(c4cc(F)c(C(=O)N5CCC[C@@H]5CNC)cc4F)CC3)CC2)nc1 [Example 29-135]    0.297
7) CCc1cnc(N2CCC(ON=C3CCN(c4cc(F)c(C(=O)N5CC[C@H](CN)C5)cc4F)CC3)CC2)nc1 [Example 29-120]    0.202
